target-system: CFTR-mediated chloride transport (Homo sapiens, UniProt P13569)
Sequence (P13569 whole entry, looked up): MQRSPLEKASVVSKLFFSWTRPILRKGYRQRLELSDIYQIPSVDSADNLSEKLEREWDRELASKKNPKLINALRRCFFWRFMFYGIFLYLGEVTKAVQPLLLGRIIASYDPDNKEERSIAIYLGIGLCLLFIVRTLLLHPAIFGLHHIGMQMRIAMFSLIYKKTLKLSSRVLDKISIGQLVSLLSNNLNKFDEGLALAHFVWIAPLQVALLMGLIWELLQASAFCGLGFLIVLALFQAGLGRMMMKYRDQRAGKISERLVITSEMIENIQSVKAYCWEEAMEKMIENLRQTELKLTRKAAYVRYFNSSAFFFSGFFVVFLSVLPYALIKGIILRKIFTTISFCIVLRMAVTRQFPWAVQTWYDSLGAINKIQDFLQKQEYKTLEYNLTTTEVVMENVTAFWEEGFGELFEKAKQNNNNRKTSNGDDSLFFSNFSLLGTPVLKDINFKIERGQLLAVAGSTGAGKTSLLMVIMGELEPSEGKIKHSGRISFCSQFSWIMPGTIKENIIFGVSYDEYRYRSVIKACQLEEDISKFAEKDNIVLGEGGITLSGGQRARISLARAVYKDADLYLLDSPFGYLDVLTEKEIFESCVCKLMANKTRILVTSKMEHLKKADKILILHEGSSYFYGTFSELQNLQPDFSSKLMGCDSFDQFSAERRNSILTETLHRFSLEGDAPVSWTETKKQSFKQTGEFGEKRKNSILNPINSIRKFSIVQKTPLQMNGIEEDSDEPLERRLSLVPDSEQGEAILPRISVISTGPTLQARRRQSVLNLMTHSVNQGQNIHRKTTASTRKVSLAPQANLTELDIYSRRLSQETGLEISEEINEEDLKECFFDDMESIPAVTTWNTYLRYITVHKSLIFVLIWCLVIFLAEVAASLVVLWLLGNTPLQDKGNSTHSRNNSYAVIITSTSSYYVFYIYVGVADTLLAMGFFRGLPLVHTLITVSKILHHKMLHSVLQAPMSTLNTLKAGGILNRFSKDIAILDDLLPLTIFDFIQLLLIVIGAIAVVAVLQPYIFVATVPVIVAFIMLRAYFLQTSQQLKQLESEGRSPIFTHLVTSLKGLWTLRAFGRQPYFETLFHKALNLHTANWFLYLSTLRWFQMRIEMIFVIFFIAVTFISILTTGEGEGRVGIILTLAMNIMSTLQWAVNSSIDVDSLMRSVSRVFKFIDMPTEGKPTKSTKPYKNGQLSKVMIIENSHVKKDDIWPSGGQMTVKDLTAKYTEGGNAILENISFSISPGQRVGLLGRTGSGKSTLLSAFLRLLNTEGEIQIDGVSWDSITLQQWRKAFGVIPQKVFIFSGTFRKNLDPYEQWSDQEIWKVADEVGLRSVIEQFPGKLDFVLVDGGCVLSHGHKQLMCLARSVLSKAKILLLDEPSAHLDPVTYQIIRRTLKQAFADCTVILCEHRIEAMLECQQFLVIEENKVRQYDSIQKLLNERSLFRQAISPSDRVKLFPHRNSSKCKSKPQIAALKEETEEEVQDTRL
Format: cell-based
measurement-setup: enteroid cells incubated with test compound 18-24 hours; acute 10 μM forskolin and 300 nM Compound III; % of chloride transport with 3 μM Compound A, 3 μM Compound II and 300 nM acute Compound III triple combination control
measurement-type: Max. Activity

- compound: "CC1(C)CC2CCCCc3ccc(cc3)S(=O)(=O)NC(=O)c3ccc(-n4ccc(OCCC5(C(F)(F)F)CC5)n4)nc3N1C2 (stereo not drawn) [Compound 52]"
  target-system: "CFTR-mediated chloride transport (Homo sapiens, UniProt P13569)"
  measurement: "++ (++ is 30-60%)"
- compound: "CC1(C)C[C@@H]2CCCNc3cccc(n3)S(=O)(=O)NC(=O)c3ccc(N4CC[C@H](OCCC5C6(CC6)C56CC6)C4=O)nc3N1C2 (single isomer, unassigned) [Compound 179]"
  target-system: "CFTR-mediated chloride transport (Homo sapiens, UniProt P13569)"
  measurement: "++ (++ is 30-60%)"
- compound: "CC1(C)CCC2CCCNc3cccc(n3)S(=O)(=O)NC(=O)c3ccc(-n4ccc(OCCC(C5CC5)C5CC5)n4)nc3N21 (stereo not drawn) [Compound 131]"
  target-system: "CFTR-mediated chloride transport (Homo sapiens, UniProt P13569)"
  measurement: "++ (++ is 30-60%)"

* * *

target-system: CFTR-mediated chloride transport (Homo sapiens, UniProt P13569)
measurement-setup: enteroid cells incubated with test compound 18-24 hours; acute 10 μM forskolin and 300 nM Compound III
pEC50: −log10 of the molar value.
Measured pEC50, listed per entry for reference.

- molecule: "C[C@@H]1CC[C@H]2CN(c3nc(-n4ccc(OCCC5(C(F)(F)F)CC5)n4)ccc3C(=O)NS(=O)(=O)c3cccc(n3)N1)C(C)(C)C2 (single isomer, unassigned) [Compound 58]"
  pEC50: "> 6.00"
- molecule: "Cc1c2cnn1CCC[C@@H]1CN(c3nc(-n4ccc(OCCC5(C(F)(F)F)CC5)n4)ccc3C(=O)NS2(=O)=O)C(C)(C)C1 (single isomer, unassigned) [Compound 113]"
  pEC50: "5.52 to 6.00"
- molecule: "CC1(C)C[C@H]2CCCCNc3cccc(n3)S(=O)(=O)NC(=O)c3ccc(-n4ccc(OCCC5(C(F)(F)F)CC5)n4)nc3N1C2 (single isomer, unassigned) [Compound 29]"
  pEC50: "> 6.00"
- molecule: "CC1(CC2CCN(c3ccc4c(n3)N3C[C@@H](CCCNc5cccc(n5)S(=O)(=O)NC4=O)CC3(C)C)C2=O)CCCCC1 (some centres unmarked)"
  pEC50: "> 6.00"
- molecule: "CC1(C)C[C@H]2CCCn3cc(cn3)S(=O)(=O)NC(=O)c3ccc(-n4ccc(OCCC5(C(F)(F)F)CC5)n4)nc3N1C2 (single isomer, unassigned) [Compound 119]"
  pEC50: "> 6.00"

* * *

target-system: UniProt P13569
measurement-setup: enteroid cells incubated with test compound 18-24 hours; acute 10 μM forskolin and 300 nM Compound III
Description: Base medium (ADF+++) consisted of Advanced DMEM/Ham's F12, 2 mM Glutamax, 10 mM HEPES, […] penicillin/streptomycin. […] Enteroid cells were incubated with test compound in IEMM for 18-24 hours at 37° C., 95% humidity and 5% CO2. […] Chloride transport was initiated by addition of Chloride Free Dye Stimulation Solution and the fluorescence signal was read for 15 min. […]
pEC50: −log10 of the molar value.
measurement-type: pEC50

- compound: "CC1(C)CC2CCCCOc3ccc(cc3)S(=O)(=O)NC(=O)c3ccc(-n4ccc(OCCC5(C(F)(F)F)CC5)n4)nc3N1C2 (racemic)"
  measurement: "> 6.00"
- compound: "CC1(C)CC[C@@H]2CCCNc3cccc(n3)S(=O)(=O)NC(=O)c3ccc(-n4ccc(OCCC5(C(F)(F)F)CC5)n4)nc3N21"
  measurement: "< 5.52"
- compound: "CN1CCC[C@H]2CN(c3nc(-n4ccc(OCCC(C5CC5)C5CC5)n4)ccc3C(=O)NS(=O)(=O)c3cccc1n3)C(C)(C)C2 (single isomer, unassigned) [Compound 204]"
  measurement: "< 5.52"
- compound: "CN1CCC[C@H]2CN(c3nc(-n4ccc(OCCC(C5CC5)C5CC5)n4)ccc3C(=O)NS(=O)(=O)c3cccc1n3)C(C)(C)C2 (single isomer, unassigned) [Compound 203]"
  measurement: "> 6.00"
- compound: "CC1(C)CC2CCCCNc3ccc(nc3)S(=O)(=O)NC(=O)c3ccc(-n4ccc(OCCC5(C(F)(F)F)CC5)n4)nc3N1C2 (stereo not drawn)"
  measurement: "> 6.00"
- compound: "CC1(C)CC2CCn3ccc(n3)S(=O)(=O)NC(=O)c3ccc(-n4ccc(OCCCC5(C(F)(F)F)CC5)n4)nc3N1C2 (stereo not drawn)"
  measurement: "> 6.00"

* * *

target-system: CFTR-mediated chloride transport (Homo sapiens, UniProt P13569)
Format: cell-based
measurement-setup: enteroid cells incubated with test compound 18-24 hours; acute 10 μM forskolin and 300 nM Compound III; % of chloride transport with 3 μM Compound A, 3 μM Compound II and 300 nM acute Compound III triple combination control

- compound: "CC1(C)C[C@H]2CCCOc3ccc(cc3)S(=O)(=O)NC(=O)c3ccc(-n4ccc(OCCC5(C(F)(F)F)CC5)n4)nc3N1C2 (single isomer, unassigned) [Compound 100]"
  Max. Activity: "+ (+ is <30%)"
- compound: "CC1(C)C[C@H]2CCCCNc3cccc(n3)S(=O)(=O)NC(=O)c3ccc(-n4cc(OCCC5(C(F)(F)F)CC5)cn4)nc3N1C2 (single isomer, unassigned) [Compound 82]"
  Max. Activity: "+ (+ is <30%)"
- compound: "Cc1c2cnn1CCCC1CN(c3nc(-n4ccc(OCC(C)(C)C(F)(F)F)n4)ccc3C(=O)NS2(=O)=O)C(C)(C)C1 (centres unmarked) [Compound 280]"
  Max. Activity: "++ (++ is 30-60%)"
- compound: "CC1(C)CC[C@H]2CCCOc3cccc(c3)S(=O)(=O)NC(=O)c3ccc(-n4ccc(OCCC5(C(F)(F)F)CC5)n4)nc3N21 (single isomer, unassigned) [Compound 7]"
  Max. Activity: "++ (++ is 30-60%)"

* * *

# pEC50 per entry
target-system: CFTR-mediated chloride transport (Homo sapiens, UniProt P13569)
measurement-setup: enteroid cells incubated with test compound 18-24 hours; acute 10 μM forskolin and 300 nM Compound III
Description: Base medium (ADF+++) consisted of Advanced DMEM/Ham's F12, 2 mM Glutamax, 10 mM HEPES, […] penicillin/streptomycin. […] Enteroid cells were incubated with test compound in IEMM for 18-24 hours at 37° C., 95% humidity and 5% CO2. […] Chloride transport was initiated by addition of Chloride Free Dye Stimulation Solution and the fluorescence signal was read for 15 min. […]
pEC50: −log10 of the molar value.

- molecule: "CC1(C)C[C@H]2CCCn3ccc(n3)S(=O)(=O)NC(=O)c3ccc(-n4ccc(OCCC5(C(F)(F)F)CC5)n4)nc3N1C2 [Compound 84]"
  pEC50: "< 5.52"
- molecule: "CC1(C)C[C@H]2C[C@@H](F)CNc3cccc(n3)S(=O)(=O)NC(=O)c3ccc(-n4ccc(OCCC5C6(CC6)C56CC6)n4)nc3N1C2 (single isomer, unassigned) [Compound 307]"
  pEC50: "< 5.52"
- molecule: "CC1(C)C[C@@H]2CCCNc3cc(O)cc(n3)S(=O)(=O)NC(=O)c3ccc(-n4ccc(OCCC5C6(CC6)C56CC6)n4)nc3N1C2 [Compound 264]"
  pEC50: "> 6.00"
- molecule: "CC1(C)C[C@@H]2CCCNc3cccc(n3)S(=O)(=O)NC(=O)c3ccc(-n4ccc(OCC(C)(C)C(F)(F)F)n4)nc3N1C2 [Compound 208]"
  pEC50: "> 6.00"
- molecule: "CC(C)(C)CCN1CCN(c2ccc3c(n2)N2CC(CCCn4ccc(n4)S(=O)(=O)NC3=O)CC2(C)C)C1=O (stereo not drawn) [Compound 168]"
  pEC50: "< 5.52"
- molecule: "CC1(C)CC[C@H]2CNc3cccc(n3)S(=O)(=O)NC(=O)c3ccc(-n4ccc(OCCC5(C(F)(F)F)CC5)n4)nc3N21 (single isomer, unassigned) [Compound 50]"
  pEC50: "< 5.52"
- molecule: "CC(C)(C)CCCO[C@H]1CCN(c2ccc3c(n2)N2C[C@@H](CCCNc4cccc(n4)S(=O)(=O)NC3=O)CC2(C)C)C1=O (single isomer, unassigned) [Compound 247]"
  pEC50: "> 6.00"
- molecule: "CC1(C)C[C@H]2CCCCn3ccc(n3)S(=O)(=O)NC(=O)c3ccc(-n4ccc(OCCCC5(C(F)(F)F)CC5)n4)nc3N1C2 (single isomer, unassigned) [Compound 277]"
  pEC50: "< 5.52"
- molecule: "CN1CCCC2CN(c3nc(-n4ccc(OCCC5(C(F)(F)F)CC5)n4)ccc3C(=O)NS(=O)(=O)c3ccc1nc3)C(C)(C)C2 (stereo not drawn) [Compound 140]"
  pEC50: "> 6.00"
- molecule: "CC1(C)C[C@@H]2CCCNc3cccc(n3)S(=O)(=O)NC(=O)c3ccc(N4CC[C@H](OCC56CC7CC(CC(C7)C5)C6)C4=O)nc3N1C2 (single isomer, unassigned) [Compound 245]"
  pEC50: "> 6.00"
- molecule: "CC1(C)C[C@@H]2CCCn3ccc(n3)S(=O)(=O)NC(=O)c3ccc(-n4ccc(OCCC(C)(C)C(F)(F)F)n4)nc3N1C2 [Compound 221]"
  pEC50: "> 6.00"
- molecule: "CC1(C)CC2CCCCn3cc(cn3)S(=O)(=O)NC(=O)c3ccc(-n4ccc(OCCC5(C(F)(F)F)CC5)n4)nc3N1C2 (stereo not drawn) [Compound 122]"
  pEC50: "> 6.00"
